// provenance: PubChem BioAssay (NCI)

Measured growth accompanies every entry in the list below.
- System: MDA-MB-231 breast
- METHOD_DESCRIPTION: NCI-60 one-dose screen, 48 h (100 = growth as untreated, 0 = no growth, -100 = all killed)
- TEST_CONDITIONS: 10 µM unless noted
- Protocol: Cells are grown in 96 well plates and exposed to the test compound for 48 hours. Compounds are tested at a single concentration, which is 10^-5 M for most compounds. The reported endpoint is percent growth (GI% or GIPRCNT), where numbers from 0 - 100% represent growth inhibition, and numbers from -100% - 0 represent cell death. For example, a value of 40 represents 60% growth inhibition. A value of 0 means no net growth occurred over the course of the experiment. […]
The panel holds about 83,000 compounds, 20% with a hit somewhere; the sample as a whole holds those more often.
Reply with just the number (in %).

Solved cases (5 shown):
Short answer for `O=C(O)c1cccc2c1Cc1cc([N+](=O)[O-])ccc1-2` : growth was 102

Short answer for `O=C1CNCCN1` : growth was 97.9

Short answer for `Brc1cnc2[nH]cc(-c3nnc(-c4ccccc4)o3)c2c1` : growth was 63

Short answer for CC(=O)O[C@H]1CC[C@@]2(C)[C@@H](CC[C@@H]3[C@@H]2CC(=O)[C@@]2(C)[C@H]3C[C@@H](C3CCCC3=O)[C@@H]2C(C)=O)C1 (some centres undefined) : growth was 98.8

Short answer for `COc1ccc(NC(=O)c2ccoc2COc2ccccc2)cc1` : growth was 95.7

More entries:
Short answer for COc1ccc(C2c3ccccc3NC(=O)N2C2CCN(C)CC2)c(OC)c1 (centres undefined) : growth was 91.9

Short answer for `CC(=O)Cc1nsc(NC(=O)c2ccoc2COc2ccccc2)n1` : growth was 95

Short answer for `C=COCCCCCCCCCCCCCCCCCC` : growth was 90.4

Short answer for `Cc1cc(C)nc(NC(N)=NCCc2ccccc2)n1` : growth was 51.6

Short answer for `C=C1C(=O)O[C@H]2[C@H]1CC/C(Cn1cc(-c3ccc(OC)cc3)nn1)=C\CC[C@@]1(C)O[C@@H]21` : growth was -12.3

Short answer for `Fc1ccc(NCc2nnc(-c3ccc(Cl)cc3)o2)cc1` : growth was 55.6

Short answer for `Cc1nnc2nc(N)[nH]n2c1=O` : growth was 129

Short answer for Cc1ccc(C)c2c1CCC2C(C)C (centres undefined) : growth was 99.6

Short answer for `COc1ccc(-n2c(/C=C/c3ccc(O)c(OC)c3)cc(/C=C/c3ccc(O)c(OC)c3)nc2=O)cc1` : growth was 43.8

Short answer for `O=C(O[C@@H]1Cc2c(O)cc(O)cc2O[C@@H]1c1cc(O)c(O)c(O)c1)c1cc(O)c2c(c1)OCO2` : growth was 101

Short answer for `Cn1nc(-c2ccccc2)c2c(-c3ccccc3)onc2c1=O` : growth was 52

Short answer for `COc1ccc(/C=C(\C#N)c2cc3ccccc3n2S(C)(=O)=O)cc1` : growth was 85.4

Short answer for `CC(=O)c1c(C)[nH]c(-c2nc3ccc(N4CCN(C)CC4)cc3[nH]2)c1-c1ccc2c(c1)OCCO2` : growth was 36

Short answer for `C[N+](C)(CCCCCC[N+](C)(C)C1c2ccccc2-c2ccccc21)C1c2ccccc2-c2ccccc21` : growth was 115

---

- Test system: SR leukemia
- METHOD_DESCRIPTION: NCI-60 one-dose screen, 48 h (100 = growth as untreated, 0 = no growth, -100 = all killed)
- TEST_CONDITIONS: 10 µM unless noted
This is part of a sample that, as a whole, favours compounds with a hit. Of some 83,000 tested, about 20% had one in any assay.
MEASURED_QUANTITY: growth (%)
Reply with just the number (in %).

Solved cases (3 shown):
growth for SR leukemia with input `COc1cc2c(cc1-c1c(C)noc1C)ncc1nc(C3CCCCC3)n([C@@H](C)COC(F)F)c12` equals 14.5

growth for SR leukemia with input `COc1cc(-c2cc(-c3nc4cc(Cl)c(Cl)cc4[nH]3)[nH]n2)cc(OC)c1OC` equals 54.5

growth for SR leukemia with input `COc1ccc(C(=O)c2ccc(C)cc2)c(OC)c1OC` equals 56.6

# input for lookup
growth for SR leukemia with input `COC(=O)CCCCCn1c2ccccc2c2c3c(c4c5ccccc5[nH]c4c21)C(=O)N(O)C3=O` equals 11.3

---

- System: HCC-2998 colon
- METHOD_DESCRIPTION: NCI-60 one-dose screen, 48 h (100 = growth as untreated, 0 = no growth, -100 = all killed)
- TEST_CONDITIONS: 10 µM unless noted
This is part of a sample that, as a whole, favours compounds with a hit. Of some 83,000 tested, about 20% had one in any assay.
Measured growth accompanies every entry in the list below.
Reply with just the number (in %).

Solved cases (4 shown):
Short answer for `Clc1ccc(Cn2cc(-c3nc4ccc(Br)nc4n3Cc3ccc(Cl)cc3)c3cccnc32)cc1` : growth was 96.7

Short answer for `Nc1ccc(Br)cn1` : growth was 98.1

Short answer for COc1ccc(C2C(C#N)=C(N)Oc3c2sc2c(F)cccc32)cc1 (stereo not drawn) : growth was 85.2

Short answer for N#CC1=C(N)Oc2c(c(N)nn2-c2ccccc2)C1c1ccc(Cl)cc1Cl (stereo not drawn) : growth was 106

More entries:
Short answer for Cc1ccc(NC2CC(=O)N(c3c(C)cc(C)cc3C)C2=O)c(C)c1 (stereo not drawn) : growth was 112

Short answer for `Clc1ccc2[nH]cc(-c3nc(-c4c[nH]c5ncccc45)cs3)c2c1` : growth was 69.3

Short answer for `C=COCCCCCCCCCCCCCCCCCC` : growth was 99.3

Short answer for `CC(=O)c1c(C)[nH]c(-c2nc3ccc(N4CCN(C)CC4)cc3[nH]2)c1-c1ccc(N(C)C)cc1` : growth was 30.3

---

Measured growth accompanies every entry in the list below.
- System: MDA-MB-435 melanoma
- METHOD_DESCRIPTION: NCI-60 one-dose screen, 48 h (100 = growth as untreated, 0 = no growth, -100 = all killed)
- TEST_CONDITIONS: 10 µM unless noted
Compounds without any hit were thinned out: in the full panel of roughly 83,000, 20% have a hit.
Reply with just the number (in %).

Solved cases (3 shown):
growth for MDA-MB-435 melanoma with input `O=C(NO)c1ccc(Cn2c(=O)n(-c3ccccc3)c(=O)c3ccccc32)cc1` equals -64.2

growth for MDA-MB-435 melanoma with input `C=C(C)[C@@H]1CC[C@]2(C(=O)O)CC[C@]3(C)[C@H](CC[C@@H]4[C@@]5(C)C/C(=C/c6cccc(I)c6)C(=O)C(C)(C)[C@@H]5CC[C@]43C)[C@@H]12` equals 32.1

growth for MDA-MB-435 melanoma with input `Cc1nc([P+](c2ccccc2)(c2ccccc2)c2ccccc2)c(Sc2sc(-c3ccccc3)nc2[P+](c2ccccc2)(c2ccccc2)c2ccccc2)o1` equals -9.1

More entries:
growth for MDA-MB-435 melanoma with input `Cn1cc(-c2nc(-c3c[nH]c4ncccc34)cs2)c2ccccc21` equals 36.5

growth for MDA-MB-435 melanoma with input COc1ccc(OCC(CO)N2CCN(c3ccccc3)CC2)cc1 (configuration not stated) equals 108

---

- Test system: LOX IMVI melanoma
- METHOD_DESCRIPTION: NCI-60 one-dose screen, 48 h (100 = growth as untreated, 0 = no growth, -100 = all killed)
- TEST_CONDITIONS: 10 µM unless noted
The panel holds about 83,000 compounds, 20% with a hit somewhere; the sample as a whole holds those more often.
Threshold-based label: growth under 90% gives true, growth not under 90% gives false.

Q: growth under 90%? Item: `CCCCCCCC(=O)SCC/C=C/[C@@H]1CC(=O)NCc2cccc(n2)CN(Cc2ccc(Cl)cc2)CC(=O)N[C@@H](C(C)C)C(=O)O1`
Ans: true

Q: growth under 90%? Item: CCC(CC)C(=O)OC(C)COc1ccc(C(C)(C)C)cc1 (centres undefined)
Ans: false

Q: growth under 90%? Item: `Cc1cc(N2CCCCC2)nc(N(CCNc2ccnc3cc(Cl)ccc23)Cc2ccco2)n1`
Ans: true

Q: growth under 90%? Item: `O=C(NCN1C(=O)c2cccc3cccc(c23)C1=O)N1CCC(Cc2ccccc2)CC1`
Ans: false

Q: growth under 90%? Item: `Cc1ccc(-c2nn(Cc3cn(-c4cc(C)nc5ccccc45)nn3)c3ncnc(N)c23)cc1`
Ans: true

Q: growth under 90%? Item: `Cn1cc(-c2csc(-c3cn(CCCN4CCCCC4)c4ccc(F)cc34)n2)c2cccnc21`
Ans: true

Q: growth under 90%? Item: CC1(C)c2ccccc2C(=O)C1(Br)Cc1ccccc1 (centres undefined)
Ans: true

Q: growth under 90%? Item: `NS(=O)(=O)c1ccc(CCNC(=O)/C=C/c2ccc(Cl)cc2)cc1`
Ans: false

Q: growth under 90%? Item: CCC1C(=O)COC1=O (centres undefined)
Ans: false

---

- System: T-47D breast
- METHOD_DESCRIPTION: NCI-60 one-dose screen, 48 h
- TEST_CONDITIONS: 10 µM unless noted
This is part of a sample that, as a whole, favours compounds with a hit. Of some 83,000 tested, about 20% had one in any assay. Active and inactive are the calls of the source. How the source made its calls: active means growth percent below 10; inactive means the rest.
Write down one outcome, taken from active, inactive

Use these answered entries as a reference point.
Q: Answer briefly: the call reported for `COc1ccc2[nH]cc(-c3nc(-c4c[nH]c5ncccc45)cs3)c2c1` in this assay.
Ans: inactive

Q: Answer briefly: the call reported for `COC1=C(Br)C(=O)C(OC)=C(Br)C1=O` in this assay.
Ans: inactive

More entries:
Q: Answer briefly: the call reported for Cc1csc(-c2ccc3c(c2)COC3(CCCN(C)C)c2ccc(F)cc2)c1 (stereo unspecified) in this assay.
Ans: active

Q: Answer briefly: the call reported for `O=C(NC1=CC(=O)c2ccccc2C1=O)c1ccccc1` in this assay.
Ans: active

Q: Answer briefly: the call reported for `COc1c(N)c2c(c([N+](=O)[O-])c1OC)C(=O)OC2` in this assay.
Ans: inactive

Q: Answer briefly: the call reported for `Cc1csc(Nc2nc(-c3cccc(Br)c3)nc(C(Cl)(Cl)Cl)n2)n1` in this assay.
Ans: inactive

Q: Answer briefly: the call reported for `Cc1cc(Cl)nc(N(CCCNc2ccnc3cc(Cl)ccc23)Cc2ccco2)n1` in this assay.
Ans: active

Q: Answer briefly: the call reported for `COc1ccc(-c2nc(Nc3ccc(-c4nc5ccccc5[nH]4)cc3)nc(N3CCOCC3)n2)cc1` in this assay.
Ans: inactive

Q: Answer briefly: the call reported for `Clc1ccc2[nH]cc(-c3nc(-c4c[nH]c5ncccc45)cs3)c2c1` in this assay.
Ans: inactive

Q: Answer briefly: the call reported for COc1cc(NC(C)CN(CC(C)C)C(C)C)c2ncccc2c1 (stereo unspecified) in this assay.
Ans: inactive

Q: Answer briefly: the call reported for `C[C@H]1OC(=O)/C=C/[C@@H](O)[C@@H](O)CCCCCCCC[C@@H]1O` in this assay.
Ans: inactive
